study_system: Integrin alpha-V/beta-3 (Homo sapiens, UniProt P05106+P06756)
Sequence (P05106 27-788 limits assumed): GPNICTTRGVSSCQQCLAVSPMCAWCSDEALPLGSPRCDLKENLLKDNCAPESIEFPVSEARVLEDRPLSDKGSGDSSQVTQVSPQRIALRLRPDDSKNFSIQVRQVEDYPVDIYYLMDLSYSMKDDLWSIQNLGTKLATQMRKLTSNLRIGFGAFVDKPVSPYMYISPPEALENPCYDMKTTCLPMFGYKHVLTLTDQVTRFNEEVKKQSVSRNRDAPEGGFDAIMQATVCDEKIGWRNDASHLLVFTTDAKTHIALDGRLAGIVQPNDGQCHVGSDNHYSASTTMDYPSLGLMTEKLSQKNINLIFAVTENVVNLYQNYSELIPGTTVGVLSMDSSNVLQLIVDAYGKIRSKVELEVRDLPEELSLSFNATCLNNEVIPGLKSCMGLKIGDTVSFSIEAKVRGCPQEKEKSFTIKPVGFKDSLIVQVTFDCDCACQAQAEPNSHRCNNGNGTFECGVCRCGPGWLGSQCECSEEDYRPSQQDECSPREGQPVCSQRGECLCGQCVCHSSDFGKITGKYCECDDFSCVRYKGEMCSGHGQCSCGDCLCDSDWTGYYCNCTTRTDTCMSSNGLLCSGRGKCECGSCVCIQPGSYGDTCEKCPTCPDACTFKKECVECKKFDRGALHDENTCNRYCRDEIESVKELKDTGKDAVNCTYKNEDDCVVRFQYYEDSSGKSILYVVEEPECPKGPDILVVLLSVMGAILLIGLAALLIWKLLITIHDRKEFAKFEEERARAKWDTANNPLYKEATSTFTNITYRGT
Sequence (P06756 31-889 limits assumed): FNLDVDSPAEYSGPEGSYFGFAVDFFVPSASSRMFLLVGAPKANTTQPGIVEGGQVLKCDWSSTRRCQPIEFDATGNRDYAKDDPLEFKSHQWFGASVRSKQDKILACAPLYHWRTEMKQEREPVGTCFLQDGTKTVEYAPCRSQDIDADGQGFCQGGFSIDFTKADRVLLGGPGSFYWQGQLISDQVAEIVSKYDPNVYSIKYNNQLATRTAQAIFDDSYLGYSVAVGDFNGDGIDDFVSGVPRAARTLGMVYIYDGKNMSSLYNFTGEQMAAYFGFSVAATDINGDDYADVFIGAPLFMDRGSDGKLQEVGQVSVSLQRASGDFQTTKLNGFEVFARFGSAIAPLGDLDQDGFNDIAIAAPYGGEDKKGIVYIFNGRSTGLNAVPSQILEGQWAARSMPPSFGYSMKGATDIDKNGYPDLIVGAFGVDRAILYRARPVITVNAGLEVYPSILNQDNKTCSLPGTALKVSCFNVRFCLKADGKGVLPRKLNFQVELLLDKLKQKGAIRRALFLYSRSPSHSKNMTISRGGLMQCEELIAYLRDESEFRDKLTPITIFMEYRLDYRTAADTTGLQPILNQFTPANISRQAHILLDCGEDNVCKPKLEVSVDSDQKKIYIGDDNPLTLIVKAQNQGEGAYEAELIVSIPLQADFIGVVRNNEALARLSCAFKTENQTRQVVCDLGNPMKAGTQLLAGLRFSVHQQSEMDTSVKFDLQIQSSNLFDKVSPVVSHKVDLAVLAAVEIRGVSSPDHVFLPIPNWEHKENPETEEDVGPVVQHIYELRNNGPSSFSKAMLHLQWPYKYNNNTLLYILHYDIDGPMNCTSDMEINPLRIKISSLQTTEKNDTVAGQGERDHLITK
Sequence (P06756 891-1048 limits assumed): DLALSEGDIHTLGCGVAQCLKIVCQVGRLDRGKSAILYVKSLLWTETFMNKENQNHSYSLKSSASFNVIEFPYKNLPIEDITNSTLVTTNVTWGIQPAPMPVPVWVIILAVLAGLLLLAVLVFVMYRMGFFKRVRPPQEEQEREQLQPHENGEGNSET
test_details: Binding affinity towards vitronectin receptor (alpha V-beta3) was determined
pKi: −log10 of the molar value.
Assign Fulfilled to entries whose pKi meets or exceeds 7; assign Not fulfilled to the rest.

State whether the measured pKi reaches 7, counting equality as reaching it, for CCCNC(=O)Nc1cccc(-c2ccc(C[C@H](NS(=O)(=O)c3ccccc3S(C)(=O)=O)C(=O)O)cc2)c1
Not fulfilled

Entry Cc1cc(C)c(S(=O)(=O)N[C@@H](Cc2ccc(-c3cccc(NC(=O)Nc4nc5ccccc5[nH]4)c3)cc2)C(=O)O)c(C)c1 : is its pKi no less than 7?
Not fulfilled

Quick check, pKi >= 7? CCCNC(=O)Nc1cccc(-c2ccc(C[C@H](NS(=O)(=O)Cc3ccccc3)C(=O)O)cc2)c1
Not fulfilled

Decide: is the reported value of pKi for Cc1cc(C)c(S(=O)(=O)N[C@@H](Cc2ccc(-c3cccc(NC(=O)NC4CC4)c3)cc2)C(=O)O)c(C)c1 equal to or greater than 7?
Fulfilled

Is it the case that CCCNC(=O)Nc1cccc(-c2ccc(C[C@H](NC(=O)NCc3ccccc3)C(=O)O)cc2)c1 has pKi reaching or exceeding 7?
Not fulfilled

Has CCCNC(=O)Nc1cccc(-c2ccc(C[C@H](NC(=O)Oc3ccc(OC)cc3)C(=O)O)cc2)c1 a recorded pKi greater than or equal to 7?
Not fulfilled

Can Cc1cc(C)c(S(=O)(=O)N[C@@H](Cc2ccc(-c3cccc(NC(=O)NCCSC(F)(F)F)c3)cc2)C(=O)O)c(C)c1 be said to have pKi at or above 7?
Fulfilled

Reported pKi at or above 7? CCCNC(=O)Nc1cccc(-c2ccc(C[C@H](NC(N)=O)C(=O)O)cc2)c1
Not fulfilled

Does CCCNC(=O)Nc1cccc(-c2ccc(C[C@H](NS(=O)(=O)C[C@]34CCC(CC3=O)C4(C)C)C(=O)O)cc2)c1 have a reported pKi of at least 7?
Fulfilled

Assess whether reported pKi for Cc1cc(C)c(S(=O)(=O)N[C@@H](Cc2ccc(-c3cccc(NC(=O)NCC(F)(F)F)c3)cc2)C(=O)O)c(C)c1 sits at 7 or higher.
Fulfilled

Item Cc1cc(C)c(S(=O)(=O)N[C@@H](Cc2ccc(-c3cccc(NC(=O)NC(C)C)c3)cc2)C(=O)O)c(C)c1 with pKi of 7 or above?
Fulfilled

Reported pKi reaches at least 7 for Cc1cc(C)c(S(=O)(=O)N[C@@H](Cc2ccc(-c3cccc(NC(=O)NCc4ccccn4)c3)cc2)C(=O)O)c(C)c1 ?
Not fulfilled

###

study_system: Integrin alpha-V/beta-3 (Homo sapiens, UniProt P05106+P06756)
test_details: Binding affinity towards vitronectin receptor (alpha V-beta3) was determined
# note: boundary value 70 nM maps to 0; Ki below it maps to 1

Quick check: Ki of CNC(=O)Nc1cccc(-c2ccc(C[C@H](NS(=O)(=O)c3c(C)cc(C)cc3C)C(=O)O)cc2)c1 under 70 nM?
0

Confirm or reject: Ki of CCCNC(=O)Nc1cccc(-c2ccc(C[C@H](NS(=O)(=O)c3cc(Cl)ccc3OC)C(=O)O)cc2)c1 lies strictly below 70 nM
0

Strictly below 70 nM: is that where Ki of CCCNC(=O)Nc1cccc(-c2ccc(C[C@H](NC(=O)OCc3ccccc3)C(=O)O)cc2)c1 sits?
0

Strictly below 70 nM: is that where Ki of CCCNC(=O)Nc1cccc(-c2ccc(C[C@H](NC(=O)OCC(C)(C)C)C(=O)O)cc2)c1 sits?
0

Does CCCNC(=O)Nc1cccc(-c2ccc(C[C@H](NC(=O)c3ccc(OC)cc3)C(=O)O)cc2)c1 have Ki strictly under 70 nM?
0

Is Ki of Cc1cc(C)c(S(=O)(=O)N[C@@H](Cc2ccc(-c3cccc(NC(=O)NCC(F)(F)C(F)(F)F)c3)cc2)C(=O)O)c(C)c1 strictly below 70 nM?
0

Hi there! Is Ki for CCCNC(=O)Nc1cccc(-c2ccc(C[C@H](NS(=O)(=O)c3ccc(OC)c(OC)c3)C(=O)O)cc2)c1 below 70 nM, do you know?
0

Here's an entry: Cc1cc(C)c(S(=O)(=O)N[C@@H](Cc2ccc(-c3cccc(NC(=O)NCC(C)C)c3)cc2)C(=O)O)c(C)c1 . Is its Ki below 70 nM?
1

Below 70 nM on Ki? Entry Cc1cc(C)c(S(=O)(=O)N[C@@H](Cc2ccc(-c3ccc(C)c(NC(=O)NC4CC4)c3)cc2)C(=O)O)c(C)c1
1

Take the compound CCCNC(=O)Nc1cccc(-c2ccc(C[C@H](NS(=O)(=O)c3cc(OC)ccc3OC)C(=O)O)cc2)c1 and say whether its Ki is less than 70 nM.
0

Does the reported Ki of Cc1cc(C)c(S(=O)(=O)N[C@@H](Cc2ccc(-c3cccc(NC(=N)N)c3)cc2)C(=O)O)c(C)c1 stay below 70 nM?
1

Say whether its Ki is strictly beneath 70 nM. Entry: CCCNC(=O)Nc1cccc(-c2cccc(C[C@H](NS(=O)(=O)c3c(C)cc(C)cc3C)C(=O)O)c2)c1
0

Report whether reported Ki is lower than 70 nM (strictly) for CCCNC(=O)Nc1cccc(-c2ccc(C[C@H](NS(=O)(=O)c3c(C)cc(C)cc3C)C(=O)O)cc2)c1
1

Field: below-cutoff. Rule: recorded Ki strictly less than 70 nM. Subject: CCCNC(=O)Nc1cccc(-c2ccc(C[C@H](NS(=O)(=O)c3cccc(Cl)c3Cl)C(=O)O)cc2)c1
0

Lab log: compare recorded Ki with 70 nM; is it strictly lower for Cc1cc(C)c(S(=O)(=O)N[C@@H](Cc2ccc(-c3cccc(NC(=O)NCc4ccc(C(F)(F)F)cc4)c3)cc2)C(=O)O)c(C)c1 ?
0

Does the reported Ki of the following compound sit strictly below 70 nM? CCCNC(=O)Nc1cccc(-c2ccc(C[C@H](NS(=O)(=O)c3ccccc3C(F)(F)F)C(=O)O)cc2)c1
0

Hello, is Ki of the following compound strictly smaller than 70 nM? CCCNC(=O)Nc1cccc(-c2ccc(C[C@H](NS(C)(=O)=O)C(=O)O)cc2)c1
0

###

study_system: Integrin alpha-V/beta-3 (Homo sapiens, UniProt P05106+P06756)
test_details: Binding affinity towards vitronectin receptor (alpha V-beta3) was determined
experimental_readout: pKi
Note on pKi: it is the negative log10 of concentration, concentration in mol/L.

Dear colleague, I am looking for the recorded pKi of the following compound: Cc1cc(C)c(S(=O)(=O)N[C@@H](Cc2ccc(-c3cccc(NC(=O)NCc4ccccc4)c3)cc2)C(=O)O)c(C)c1
7.22

# get_value(readout='pKi', item= CCCNC(=O)Nc1cccc(-c2ccc(C[C@H](NC(=O)OC3CCCC3)C(=O)O)cc2)c1 )
6.68

Form field: reported pKi of Cc1cc(C)c(S(=O)(=O)N[C@@H](Cc2ccc(-c3ccc(C)c(NC(=O)NC4CCCC4)c3)cc2)C(=O)O)c(C)c1
7.00

Look at this compound and give its reported pKi. CCCNC(=O)Nc1cccc(-c2ccc(C[C@H](NC(=O)OCC(C)C)C(=O)O)cc2)c1
6.05

###

So I've got a bunch of compounds here, and I need their Ki values.
study_system: Integrin alpha-V/beta-3 (Homo sapiens, UniProt P05106+P06756)
test_details: Binding affinity towards vitronectin receptor (alpha V-beta3) was determined
Lab book: enter the figure in nM, no units written.

# query: Ki | item CCCNC(=O)Nc1cccc(-c2ccc(C[C@H](NS(=O)(=O)c3ccc(Cl)cc3C(F)(F)F)C(=O)O)cc2)c1 | system: Integrin alpha-V/beta-3 (Homo sapiens, UniProt P05106+P06756)
100

Observed Ki on Integrin alpha-V/beta-3 (Homo sapiens, UniProt P05106+P06756) for Cc1cc(C)c(S(=O)(=O)N[C@@H](Cc2ccc(-c3cccc(NC(N)=O)c3)cc2)C(=O)O)c(C)c1 , please.
80

Find Ki (Integrin alpha-V/beta-3 (Homo sapiens, UniProt P05106+P06756)) for the entry CCCNC(=O)Nc1cccc(-c2ccc(C[C@H](NC(=O)OCC)C(=O)O)cc2)c1
120

Identify the measured Ki of CCC(C)NC(=O)Nc1cccc(-c2ccc(C[C@H](NS(=O)(=O)c3c(C)cc(C)cc3C)C(=O)O)cc2)c1 (some centres undefined) for Integrin alpha-V/beta-3 (Homo sapiens, UniProt P05106+P06756).
74
